Value source: ChEMBL document CHEMBL4152381

assay: Intrinsic clearance in mouse liver microsomes; type: ADME, microsome; settings: read-out: CLH
Threshold 20 mL/min/kg. CLint scaled below it: criterion met. CLint scaled at it or above: criterion not met.

| molecular string | group label |
| --- | --- |
| Cc1ccc2nc(N3CCS(=O)(=O)c4ccccc4C3)cc(NCCN)c2c1 | criterion met |
| Cc1ccc2nc(N3CCCc4cc(F)ccc4C3)cc(NCCN)c2c1 | criterion not met |
| NCCNc1cc(N2CCCc3ccccc3C2)nc2ccccc12 | criterion met |
| Cc1ccc2nc(N3CCCc4ccc(F)cc4C3)cc(NCCN)c2c1 | criterion not met |
| Cc1ccc2nc(N3CCNc4ccccc4C3)cc(NCCN)c2c1 | criterion met |
| NCCNc1cc(N2CCOc3ccccc3C2)nc2ccccc12 | criterion not met |
| Cc1ccc2nc(N3CC(=O)Nc4ccccc4C3)cc(NCCN)c2c1 | criterion met |
